molecular target: KRas wild type (Homo sapiens); experiment: Ras GTP binding domain inhibition assay (labeled-GTP competition, cell-free); parameters: made in house; conditions: with SOS, read-out: KRas wild type + SOS: % inh.
The entries below come with measured inhibition at 20 µM values attached.

The following compounds have reported results that may help.
Cc1c(-c2ccn(C(C)C)n2)sc2nc(-c3nccn3C)nc(NC[C@H]3CCC(=O)N3)c12 [Compound 52]: 51 to 75%
Cn1nccc1-c1nc(O)c2scc(-c3ccccn3)c2n1 [Compound 91]: 0%
Cc1c(-c2ccn(C(C)C)n2)sc2nc(-c3nccn3C)nc(NCCc3nnn[nH]3)c12 [Compound 46]: 51 to 75%

Task item: Answer with reported inhibition at 20 µM of COCC1CCN(c2nc(-c3ccccn3)nc3sc(-c4ccn(C(C)C)n4)c(C)c23)C1 (racemic) [Compound 71]
Reply: 26 to 50%

----------
biological target: KRas G12C mutant (Homo sapiens, UniProt P01116, G12C); construct: made in house; assay: Ras GTP binding domain inhibition assay (labeled-GTP competition, cell-free); details: with SOS, read-out: KRas G12C mutant + SOS: % inh.
METRIC NAME: inhibition at 20 µM

The following compounds have reported results that may help.
COC1CCN(c2nc(-c3nccn3C)nc3sc(-c4ccn(C(C)C)n4)c(C)c23)C1 (racemic) [Compound 34]: 76 to 100%
CO[C@H]1CC[C@@H](Nc2nc(-c3nccn3C)nc3sc(-c4ccn(C(C)C)n4)c(C)c23)CC1 [Compound 55]: 26 to 50%

Would you kindly look at the next entry?
Task item: Give inhibition at 20 µM; test system KRas G12C mutant (Homo sapiens, UniProt P01116, G12C); compound CO[C@H]1CC[C@@H](Nc2nc(C(=O)NC(C)C)nc3sccc23)C1 (racemic) [Compound 13]
Reply: 0%

----------
tested on: MIA-PaCa-2 pancreatic cancer cell line (KRAS G12C); assay: Cell proliferation assay (CellTiter 96 Aqueous One); type: cell-based; conditions: Homo sapiens, MIA PaCa-2, MIA PaCa-2
The entries below come with measured IC50 values attached.

CCOCCn1ccnc1-c1nc(O)c2scc(-c3ccccn3)c2n1 [Compound 80]: 1 to 4.99 µM
CO[C@H]1C[C@H](Nc2nc(-c3nccn3C)nc3sc(-c4ccn(C(C)C)n4)c(C)c23)C[C@H]1OC [Compound 43]: 5 to 10 µM
CO[C@H]1CC[C@@H](Nc2nc(C(=O)NC(C)C)nc3sccc23)C1 (racemic) [Compound 13]: > 10 µM
CO[C@@H]1CC[C@H](Nc2nc(-c3nccn3C)nc3sc(-c4ccn(C(C)C)n4)c(-c4ccccc4)c23)C1 [Example 4]: < 1 µM
COC1CCCN(c2nc(-c3nccn3C)nc3sc(-c4ccn(C(C)C)n4)c(C)c23)C1 (racemic) [Compound 40]: < 1 µM

Task item: Answer with reported IC50 of Oc1nc(-c2cccnc2)nc2c(-c3ccccn3)csc12 [Compound 89]
Reply: > 10 µM

Task item: Answer with reported IC50 of CO[C@@H]1CC[C@H]1CNc1nc(-c2nccn2C)nc2sc(-c3ccn(C(C)C)n3)c(C)c12 (racemic) [Compound 61]
Reply: < 1 µM

Task item: Answer with reported IC50 of COC1CCCN(c2nc(-c3ccccn3)nc3sc(-c4ccn(C(C)C)n4)c(C)c23)C1 (racemic) [Compound 70]
Reply: 5 to 10 µM

----------
target: KRas G12D mutant (Homo sapiens, UniProt P01116, G12D); construct: made in house; test: Ras GTP binding domain inhibition assay (labeled-GTP competition, cell-free); details: with SOS, read-out: KRas G12D mutant + SOS: % inh.
METRIC NAME: inhibition at 20 µM

CO[C@H]1CC[C@@H](Nc2nc(-c3nccn3C)nc3sc(-c4ccn(C(C)C)n4)c(-c4ccccc4)c23)C1: 51 to 75%
CO[C@H]1C[C@@H](Nc2nc(-c3nccn3C)nc3sc(-c4ccn(C(C)C)n4)c(C)c23)C1: 1 to 25%
Oc1nc(-c2ccccn2)nc2c(-c3ncccc3F)csc12: 76 to 100%
COCCn1cnc(-c2nc(O)c3scc(-c4ccccn4)c3n2)c1: 51 to 75%

Task item: Answer with reported inhibition at 20 µM of `CO[C@H]1C[C@H](Nc2nc(-c3nccn3C)nc3sc(-c4ccn(C(C)C)n4)c(C)c23)C[C@H]1OC`
Reply: 76 to 100%

Task item: Answer with reported inhibition at 20 µM of `COc1ccnc(Nc2nc(-c3nccn3C)nc3sc(-c4ccn(C(C)C)n4)c(C)c23)n1`
Reply: 76 to 100%

Task item: Answer with reported inhibition at 20 µM of `Cc1c(-c2ccn(C(C)C)n2)sc2nc(-c3nccn3C)nc(NCc3ncc[nH]3)c12`
Reply: 26 to 50%

----------
Target: KRas G12D mutant (Homo sapiens, UniProt P01116, G12D)
Construct: made in house
Assay: Ras GTP binding domain inhibition assay (labeled-GTP competition, cell-free)
Conditions: with SOS, read-out: KRas G12D mutant + SOS: % inh.
From the text: This is a competitive binding assay. It involves the immobilization of a protein on solid phase, interaction with a small molecule drug candidate, and then competitive binding with a labeled native GTP or GDP ligand. […] The small GTPases proteins: KRas wild type. KRas Q61H mutant, KRas G12C mutant, KRas G12D mutants, Rac-1, and Rho-A were expressed as His-tagged proteins. In addition, the Guanosine nucleotide Exchange Factor (GEF) Sos protein (residues 556-1049) was expressed as a His-tagged protein. […]
The entries below come with measured inhibition at 20 µM values attached.

The following compounds have reported results that may help.
CO[C@@H]1CC[C@H](Nc2nc(-c3nccn3C)nc3sc(-c4ccn(C(C)C)n4)c(C)c23)C1: 76 to 100%
CO[C@H]1CC[C@@H](Nc2nc(C(=O)N3CCOCC3)nc3sccc23)C1 (racemic): 0%

Task item: Answer with reported inhibition at 20 µM of `CC(C)OCCn1ccnc1-c1nc(O)c2scc(-c3ccccn3)c2n1`
Reply: 51 to 75%

----------
tested on: Akt phosphorylation in Panc-1 cells; assay: Western AKT cell-based phosphorylation assay; set-up: species or system human; conditions: at 10 μM, values in brackets < > are activation %, not inhibition
METRIC NAME: % inh of AKT phosphorylation in PANC-1

The following compounds have reported results that may help.
Cc1sc2c(O)nc(-c3ccccn3)nc2c1-c1ccccn1: 0 (0% inhibition)
COCCn1cnc(-c2nc(O)c3scc(-c4ccccn4)c3n2)c1: 0 (0% inhibition)
CO[C@H]1C[C@H](CNc2nc(-c3nccn3C)nc3sc(-c4ccn(C(C)C)n4)c(C)c23)C1: 0 (0% inhibition)
CO[C@H]1CC[C@@H](Nc2nc(-c3nccn3C)nc3sc(-c4ccn(C(C)C)n4)c(C)c23)CC1: <A>
CCOCCn1ccnc1-c1nc(O)c2scc(-c3ccccn3)c2n1: <D>

Task item: Answer with reported % inh of AKT phosphorylation in PANC-1 of `Cn1nccc1-c1nc(O)c2scc(-c3ccccn3)c2n1`
Reply: 0 (0% inhibition)

Task item: Answer with reported % inh of AKT phosphorylation in PANC-1 of COCCn1ccnc1-c1nc(N[C@@H]2CC[C@H](OC)C2)c2ccsc2n1 (racemic)
Reply: 0 (0% inhibition)

----------
Target: KRas G12C mutant (Homo sapiens, UniProt P01116, G12C)
Construct: made in house
Experiment: Ras GTP binding domain inhibition assay (labeled-GTP competition, cell-free)
Conditions: with SOS, read-out: KRas G12C mutant + SOS: % inh.
Description: This is a competitive binding assay. It involves the immobilization of a protein on solid phase, interaction with a small molecule drug candidate, and then competitive binding with a labeled native GTP or GDP ligand. […] The small GTPases proteins: KRas wild type. KRas Q61H mutant, KRas G12C mutant, KRas G12D mutants, Rac-1, and Rho-A were expressed as His-tagged proteins. In addition, the Guanosine nucleotide Exchange Factor (GEF) Sos protein (residues 556-1049) was expressed as a His-tagged protein. […]
The entries below come with measured inhibition at 20 µM values attached.

The following molecules have reported results that may help.
Oc1nc(-c2nccn2CCOCc2ccccc2)nc2c(-c3ccccn3)csc12: 51 to 75%
Oc1nc(-c2nccn2CCOCC(F)(F)F)nc2c(-c3ccccn3)csc12: 51 to 75%
CO[C@H]1CC[C@@H](Nc2nc(-c3nccn3C)nc3sccc23)C1 (racemic): 76 to 100%
CO[C@H]1CC[C@@H](Nc2nc(-c3nccn3C)nc3sc(-c4cc[nH]n4)c(-c4ccccc4)c23)C1 (racemic): 1 to 25%

Task item: Give inhibition at 20 µM; test system KRas G12C mutant (Homo sapiens, UniProt P01116, G12C); molecule CO[C@H]1CC[C@@H](Nc2nc(C(=O)Nc3ccccc3)nc3sccc23)C1 (racemic)
Reply: 0%

Task item: Give inhibition at 20 µM; test system KRas G12C mutant (Homo sapiens, UniProt P01116, G12C); molecule `COc1nc(-c2nccn2C)nc2c(-c3ncccc3F)csc12`
Reply: 76 to 100%
